All figures here come from patent US20210380703A1.

molecular target: T1, biotinylated goat anti-human kappa light chain; experiment: ELISA, positive control; note: test concentration or dose not given here
T1 construct: positive control of the ELISA
METRIC: optical density (OD)

{"columns": ["BINDER", "METRIC", "REPORTED MEASUREMENT"],
 "data": [
  ["374_D07 (antibody, V domains shown, Group III) VH: EVQLLESGGGLVQPGGSLRLSCAASGFTFDSYSMNWVRQAPGKGLEWVSGINYNSGYKSYADSVKGRFTISRDNSKNTLYLQMNSLRAEDTAVYYCARGANWHDTALDYWGQGTLVTVSS VL: DIQMTQSPSSLSASVGDRVTITCRASQSIVSYLNWYQQKPGKAPKLVIYAATSLASGVPSRFSGSGSGTDFTLTISSLQPEDFATYYCQQSYNSPLTFGGGTKVEIK", "optical density", 3.26],
  ["374_H11 (antibody, V domains shown, Group III) VH: EVQLLESGGGLVQPGGSLRLSCAASGFTFSSYSMNWVRQAPGKGLEWVSGINYNGGYTSYADSVKGRFTISRDNSKNTLYLQMNSLRAEDTAVYYCARGANWHDTALDYWGQGTLVTVSS VL: DIQMTQSPSSLSASVGDRVTITCRASQSIISYVNWYQQKPGKAPKLVIYAATSLHSGVPSRFSGSGSGTDFTLTISSLQPEDFATYYCQQSYSNPLTFGGGTKVEIK", "optical density", 3.15],
  ["368_F09 (antibody, V domains shown, Group III) VH: EVQLLESGGGLVQPGGSLRLSCAASGFTFSSYGMNWVRQAPGKGLEWVSGINYNSGYTSYADSVKGRFTISRDNSKNTLYLQMNSLRAEDTAVYYCARGANWHDTHLDYWGQGTLVTVSS VL: DIQMTQSPSSLSASVGDRVTITCRASQSILTYLNWYQQKPGKAPKLLIYAASSLQSGVPSRFSGSGSGTDFTLTISSLQPEDFATYYCQQSYETPLTFGGGTKVEIK", "optical density", 3.58],
  ["371_C05 (antibody, V domains shown, Group III) VH: EVQLLESGGGLVQPGGSLRLSCAASGFTFSDYGMHWVRQAPGKGLEWVANINYNGGYTGYADSVKGRFTISRDNSKNTLYLQMNSLRAEDTAVYYCARGANWHDTALDYWGQGTLVTVSS VL: DIQMTQSPSSLSASVGDRVTITCRASQSILSYLNWYQQKPGKAPKLLIYAATSRASGVPSRFSGSGSGTDFTLTISSLQPEDFATYYCQQSYDSPLTFGGGTKVEIK", "optical density", 3.08],
  ["375_D10 (antibody, V domains shown, Group III) VH: EVQLLESGGGLVQPGGSLRLSCAASGFTFSSYSMNWVRQAPGKGLEWVAGINYNGGYTSYADSVKGRFTISRDNSKNTLYLQMNSLRAEDTAVYYCARGANWHDTALDYWGQGTLVTVSS VL: DIQMTQSPSSLSASVGDRVTITCRASQSILTYVNWYQQKPGKAPKLLIYAATSRASGVPSRFSGSGSGTDFTLTISSLQPEDFATYYCQQSDDSPLTFGGGTKVEIK", "optical density", 3.21]
]}
